These data points were gathered from patent US20260242507A1.

system_under_test: human GPC3 (glypican 3), full length, on cells (human) (UniProt P51654)
Sequence (P51654 25-554 limits assumed): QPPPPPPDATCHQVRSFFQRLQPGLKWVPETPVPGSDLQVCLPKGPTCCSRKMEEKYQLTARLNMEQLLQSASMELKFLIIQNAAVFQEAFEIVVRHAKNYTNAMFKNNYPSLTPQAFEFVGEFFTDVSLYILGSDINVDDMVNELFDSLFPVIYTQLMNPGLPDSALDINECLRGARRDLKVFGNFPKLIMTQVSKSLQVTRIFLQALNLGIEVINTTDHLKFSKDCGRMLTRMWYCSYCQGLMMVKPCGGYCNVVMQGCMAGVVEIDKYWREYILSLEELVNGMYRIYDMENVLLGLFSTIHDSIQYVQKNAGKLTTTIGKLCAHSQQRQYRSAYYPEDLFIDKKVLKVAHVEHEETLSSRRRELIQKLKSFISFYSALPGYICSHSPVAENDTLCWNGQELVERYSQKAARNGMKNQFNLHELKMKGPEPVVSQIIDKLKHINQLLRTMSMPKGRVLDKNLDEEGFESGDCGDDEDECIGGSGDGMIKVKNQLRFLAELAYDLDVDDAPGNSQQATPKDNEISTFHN
assay_explanation: cell-based or functional assay
measured_quantity: % cytolysis of Hep3B at 164h, xCELLigence, 500 CAR T cells, Donor 1
A bare number is not enough; add the unit after it.

% cytolysis of Hep3B at 164h, xCELLigence, 500 CAR T cells, Donor 1 in this record for hmAb1-3 CAR (protein, part only; not given: hinge, transmembrane and signaling domains, part only) chain, part: QVQLVQSGAEVKKPGASVKVSCKTSGYTFTDYYIHWVRQAPGQGLEWMGEIYPGSGNTYYAQKFQGRVTMTADTSTSTAYMELSSLRSEDTAVYYCARGNDYDAWFVYWGQGTLVTVSSGSTSGSGKPGSGEGSTKGDIVMTQSPDSLAVSLGERATINCKSSQSLLNSGTRKNYLAWYQQKPGQPPKLLIYWASIRESGVPDRFSGSGSGTDFTLTISSLQAEDVAVYYCKQSYSLYTFGQGTKLEIK : 97.1%
